Taken from ChEMBL document CHEMBL5143597.

# Test method notes: Cmax in C57BL/6 mouse at 5 mg/kg, iv or 10 mg/kg, po and measured up to 24 hrs by LC-MS/MS analysis
# Type: ADME, organism-based
# Parameters: dose 5 mg/kg, time < 24 hrs, route iv
# Measurement context: in vivo
Assay endpoint: Cmax

> print(dat)
                              smiles.string  observed
1  O=C(Nc1ccc(N2CCC3(CC2)CC(C(=O)O)C3)nc1)c1nnc(Nc2ccc(F)c(F)c2)o1    4.5 µM

---

// AUC at 24 h lookup, one value per entry
# Test method notes: AUC in Wistar rat at 3 mg/kg, iv or 10 mg/kg, po and measured up to 24 hrs by LC-MS/MS analysis
# Assay type: ADME, organism-based
# Design: dose 3 mg/kg, time < 24 hrs, route iv
# Measurement context: in vivo
Assay endpoint: AUC at 24 h (µM·h)

> print(dat)
                                   compound  observed
1  O=C(Nc1ccc(C2CCC3(CC2)CC(C(=O)O)C3)cc1)c1nnc(Nc2ccc(F)c(F)c2)o1 (centres undefined)        17
2  O=C(O)CC1CCC2(CC1)CCC(c1ccc(NC(=O)c3nnc(Nc4ccc(F)c(F)c4)o3)cn1)CC2 (centres undefined)      23.7
3  O=C(Nc1ccc(N2CCC3(CC2)CC(C(=O)O)C3)nc1)c1nnc(Nc2ccc(F)c(F)c2)o1        47
4  O=C(O)CC1CCC2(CC1)CCN(c1ccc(NC(=O)c3nnc(Nc4ccc(F)c(F)c4)o3)cn1)CC2        30

---

# Test method notes: Cmax in Wistar rat at 3 mg/kg, iv or 10 mg/kg, po and measured up to 24 hrs by LC-MS/MS analysis
# Assay type: ADME, organism-based
# Design: dose 3 mg/kg, time < 24 hrs, route iv
# Measurement context: in vivo
// Cmax lookup, one value per entry
Assay endpoint: Cmax (µM)

> print(dat)
                                   compound  observed
1  O=C(Nc1ccc(N2CCC3(CC2)CC(C(=O)O)C3)nc1)c1nnc(Nc2ccc(F)c(F)c2)o1        57
2  O=C(O)CC1CCC2(CC1)CCC(c1ccc(NC(=O)c3nnc(Nc4ccc(F)c(F)c4)o3)cn1)CC2 (centres undefined)       3.8
3  O=C(Nc1ccc(C2CCC3(CC2)CC(C(=O)O)C3)cc1)c1nnc(Nc2ccc(F)c(F)c2)o1 (centres undefined)        14
4  O=C(O)CC1CCC2(CC1)CCN(c1ccc(NC(=O)c3nnc(Nc4ccc(F)c(F)c4)o3)cn1)CC2       9.2

---

# Test method notes: Clearance in C57BL/6 mouse at 5 mg/kg, iv r 10 mg/kg, po and measured up to 24 hrs by LC-MS/MS analysis
# Format: ADME, organism-based
# Measurement context: in vivo
Assay endpoint: clearance (mL/min/kg)

> print(dat)
                              smiles.string  assay.endpoint  observed
1  O=C(Nc1ccc(N2CCC3(CC2)CC(C(=O)O)C3)nc1)c1nnc(Nc2ccc(F)c(F)c2)o1       clearance        58

---

# Test method notes: Drug distribution in C57BL/6 mouse plasma 10 mg/kg, po and measured at 1 hrs post dose by LC-MS/MS analysis
# Type: ADME, organism-based
// concentration at 1 h lookup, one value per entry
Assay endpoint: concentration at 1 h

> print(dat)
                                   compound  observed
1  O=C(O)CC1CCC2(CC1)CCN(c1ccc(NC(=O)c3nnc(Nc4ccc(F)c(F)c4)o3)cn1)CC2   1870 nM
2  O=C(Nc1ccc(N2CCC3(CC2)CC(C(=O)O)C3)nc1)c1nnc(Nc2ccc(F)c(F)c2)o1   1900 nM
3  O=C(O)CC1CCC2(CC1)CCC(c1ccc(NC(=O)c3nnc(Nc4ccc(F)c(F)c4)o3)cn1)CC2 (centres undefined)   2760 nM
4  O=C(Nc1ccc(C2CCC3(CC2)CC(C(=O)O)C3)cc1)c1nnc(Nc2ccc(F)c(F)c2)o1 (centres undefined)   5900 nM

---

# Test method notes: Drug distribution in Wistar rat adipose tissue 10 mg/kg, po and measured at 8 hrs post dose by LC-MS/MS analysis
# Format: ADME, organism-based
# Measurement context: read-out: Ct
Assay endpoint: concentration at 8 h

> print(dat)
                              smiles.string        assay.endpoint  observed
1  O=C(Nc1ccc(N2CCC3(CC2)CC(C(=O)O)C3)nc1)c1nnc(Nc2ccc(F)c(F)c2)o1  concentration at 8 h    340 nM

---

# Test method notes: Tmax in C57BL/6 mouse at 5 mg/kg, iv or 10 mg/kg, po and measured up to 24 hrs by LC-MS/MS analysis
# Assay type: ADME, organism-based
# Measurement context: in vivo
Assay endpoint: Tmax (min)

> print(dat)
                              smiles.string  observed
1  O=C(Nc1ccc(N2CCC3(CC2)CC(C(=O)O)C3)nc1)c1nnc(Nc2ccc(F)c(F)c2)o1        30

---

# Assay system: CYP2D6 (Homo sapiens)
# Sequence (P10635 whole entry): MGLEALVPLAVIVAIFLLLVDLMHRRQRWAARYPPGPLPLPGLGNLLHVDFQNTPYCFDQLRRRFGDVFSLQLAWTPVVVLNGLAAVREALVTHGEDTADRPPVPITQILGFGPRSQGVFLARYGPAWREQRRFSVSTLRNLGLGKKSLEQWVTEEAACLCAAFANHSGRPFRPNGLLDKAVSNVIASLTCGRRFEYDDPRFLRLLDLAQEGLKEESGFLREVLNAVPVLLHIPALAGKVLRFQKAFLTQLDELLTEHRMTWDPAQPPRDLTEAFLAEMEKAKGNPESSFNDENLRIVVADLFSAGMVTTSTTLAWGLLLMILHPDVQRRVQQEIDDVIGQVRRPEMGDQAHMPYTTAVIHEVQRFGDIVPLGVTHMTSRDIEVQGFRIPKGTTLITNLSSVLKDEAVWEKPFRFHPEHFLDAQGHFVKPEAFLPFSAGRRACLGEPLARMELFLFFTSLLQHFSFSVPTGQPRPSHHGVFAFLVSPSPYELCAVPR
# Test method notes: Inhibition of recombinant human CYP2D6 at 10 uM by fluorescence plate reader analysis
# Assay type: ADME
Assay endpoint: inhibition at 10 µM (%)

> print(dat)
                              smiles.string  observed
1  O=C([O-])CC1CCC2(CC1)CCN(c1ccc(NC(=O)c3nnc(Nc4ccc(F)c(F)c4)o3)cn1)CC2.[Na+]         7

---

# Test method notes: Solubility of compound in PBS at pH 4 incubated for 4 hrs under shaking condition by UV absorbance based analysis
# Type: physicochemical
Assay endpoint: solubility at 4 h (µM)

> print(dat)
                                   molecule     assay.endpoint  result.units  value.prefix  observed
1  O=C([O-])CC1CCC2(CC1)CCC(c1ccc(NC(=O)c3nnc(Nc4ccc(F)c(F)c4)o3)cn1)CC2.[Na+] (centres undefined)  solubility at 4 h            µM             <         6
2  O=C(Nc1ccc(N2CCC3(CC2)CC(C(=O)[O-])C3)nc1)c1nnc(Nc2ccc(F)c(F)c2)o1.[Na+]  solubility at 4 h            µM             =        36
3  O=C([O-])CC1CCC2(CC1)CCN(c1ccc(NC(=O)c3nnc(Nc4ccc(F)c(F)c4)o3)cn1)CC2.[Na+]  solubility at 4 h            µM             <         6
4  O=C([O-])CC1CCC2(CC1)CCC(c1ccc(NC(=O)c3nnc(Nc4ccc(F)c(F)c4)o3)cc1)CC2.[Na+] (centres undefined)  solubility at 4 h            µM             =       263

---

// Papp A→B at 1.5 h, 2.5 µM lookup, one value per entry
# Test method notes: Apparent permeability across apical to basolateral side in MDCK cells at 2.5 uM for 90 mins
# Format: ADME, cell-based, Canis lupus familiaris
# Measurement context: dog
Assay endpoint: Papp A→B at 1.5 h, 2.5 µM (×10⁻⁶ cm/s)

> print(dat)
                                   compound  observed
1  O=C(O)CC1CCC2(CC1)CCC(c1ccc(NC(=O)c3nnc(Nc4ccc(F)c(F)c4)o3)cn1)CC2 (centres undefined)       4.7
2  O=C(Nc1ccc(N2CCC3(CC2)CC(C(=O)O)C3)nc1)c1nnc(Nc2ccc(F)c(F)c2)o1       2.8
3  O=C(Nc1ccc(C2CCC3(CC2)CC(C(=O)O)C3)cc1)c1nnc(Nc2ccc(F)c(F)c2)o1 (centres undefined)       4.9
4  O=C(O)CC1CCC2(CC1)CCN(c1ccc(NC(=O)c3nnc(Nc4ccc(F)c(F)c4)o3)cn1)CC2       5.3

---

# Test method notes: Oral bioavailability in C57BL/6 mouse 10 mg/kg or 5 mg/kg, iv and measured up to 24 hrs by LC-MS/MS analysis
# Type: ADME, organism-based
# Measurement context: in vivo
Assay endpoint: bioavailability (%)

> print(dat)
                              smiles.string  result.units  observed
1  O=C(Nc1ccc(N2CCC3(CC2)CC(C(=O)O)C3)nc1)c1nnc(Nc2ccc(F)c(F)c2)o1             %        97

---

# Test method notes: Drug distribution in C57BL/6 mouse brain 10 mg/kg, po and measured at 2 hrs post dose by LC-MS/MS analysis
# Type: ADME, organism-based
# Measurement context: read-out: Ct
Assay endpoint: concentration at 2 h (nM)

> print(dat)
                                   compound  result.units  observed
1  O=C(O)CC1CCC2(CC1)CCN(c1ccc(NC(=O)c3nnc(Nc4ccc(F)c(F)c4)o3)cn1)CC2            nM        10
2  O=C(O)CC1CCC2(CC1)CCC(c1ccc(NC(=O)c3nnc(Nc4ccc(F)c(F)c4)o3)cn1)CC2 (stereo not drawn)            nM        60
3  O=C(Nc1ccc(N2CCC3(CC2)CC(C(=O)O)C3)nc1)c1nnc(Nc2ccc(F)c(F)c2)o1            nM       260
